Below is a list of entries, each paired with its recorded viability at 28.5 h, 10 µM value.
# Procedure text: in vitro
# Condition details: human, hela cells, % viability
Answer in %, number only, no unit symbol.

Reference set (2 entries):
1. O=C1C2(Cc3ccccc3)CN3CN(C2)CC1(Cc1ccccc1)C3 ... 89.9
2. CN(C)c1nc(NCc2ccccc2)nc(SCC(=O)Nc2ccccc2)n1 ... 88.9

Exam item: Item C[C@@H]1CN(C(=O)OCCc2ccsc2)C[C@H](C)O1 has what recorded viability at 28.5 h, 10 µM?
Marked response: 89.3

Exam item: Item O=C(O)CSc1nc2ccc([N+](=O)[O-])cc2s1 has what recorded viability at 28.5 h, 10 µM?
Marked response: 88.4

Exam item: Item O=C(O)C(Cc1c[nH]c2ccccc12)N1C(=O)C2C3c4ccccc4C(c4ccccc43)C2C1=O (centres unmarked) has what recorded viability at 28.5 h, 10 µM?
Marked response: 91.4

* * *

Below is a list of entries, each paired with its recorded viability at 28.5 h, 10 µM value.
# Procedure text: in vitro
# Condition details: human, hela cells, % viability
Answer in %, number only, no unit symbol.

Reference set (3 entries):
1. O=C(NCc1ccc(-c2nc3ncccc3o2)cc1)c1ccc(F)cc1 ... 91.3
2. Cc1ccccc1CNCCNCC(C)O (stereo not drawn) [CBK268718C] ... 95.9
3. CC(NC(=O)c1cc2ccccc2c(=O)[nH]1)c1ccc(-c2ccccc2)cc1 (stereo not drawn) ... 86.4

Exam item: Item Oc1ccc(/C=N/Nc2nnc(-c3ccccc3)c(-c3ccccc3)n2)cc1 has what recorded viability at 28.5 h, 10 µM?
Marked response: 112

Exam item: Item COCCn1ccnc1C1CCN(C(=O)Cc2ccc(O)c(F)c2)CC1 has what recorded viability at 28.5 h, 10 µM?
Marked response: 82.6

Exam item: Item OCCN1CCN(c2nccc(C(F)(F)F)n2)CC1 has what recorded viability at 28.5 h, 10 µM?
Marked response: 107

Exam item: Item O=C(O)c1ccc(NS(=O)(=O)c2ccc3ccccc3c2)cc1 has what recorded viability at 28.5 h, 10 µM?
Marked response: 96.6

Exam item: Item Cc1cc(-c2cn3cc(C(=O)N4CCCC4C)nc3c(=O)n2C)c(C)o1 (stereo not drawn) has what recorded viability at 28.5 h, 10 µM?
Marked response: 84.8

Exam item: Item CCn1cc(C(=O)O)c(=O)c2cc(F)c(N3CCN(C(=S)Nc4cccc5ccccc45)CC3)cc21 has what recorded viability at 28.5 h, 10 µM?
Marked response: 97.4

Exam item: Item CCCC(=O)NC(c1ccccn1)C1CCC(CNC(C)=O)CC1 (stereo not drawn) has what recorded viability at 28.5 h, 10 µM?
Marked response: 102

Exam item: Item O=C(Nc1sc2c(c1C(=O)NCc1ccco1)CCCC2)c1sc2ccccc2c1Cl has what recorded viability at 28.5 h, 10 µM?
Marked response: 92.1

Exam item: Item Cc1ccc2c(CC(=O)N3CCC(C(=O)O)CC3)coc2c1 has what recorded viability at 28.5 h, 10 µM?
Marked response: 79.9

Exam item: Item COCCn1cc(CN2CCC(CO)C2)c2ccccc21 (stereo not drawn) has what recorded viability at 28.5 h, 10 µM?
Marked response: 99.2

Exam item: Item Cc1ccc(NC(=O)c2ccc3nccnc3c2)c(C)n1 has what recorded viability at 28.5 h, 10 µM?
Marked response: 93.6

Exam item: Item CC(=O)N1CCC[C@H]2NC(=O)CNC(=O)C3(C/C=C/C[C@H]21)CCN(CC1CCC1)CC3 has what recorded viability at 28.5 h, 10 µM?
Marked response: 103

* * *

# Procedure text: in vitro
# Condition details: human, hela cells, % viability
Below is a list of entries, each paired with its recorded viability at 28.5 h, 10 µM value.
Answer in %, number only, no unit symbol.

1. COc1ccc(-c2cc(=O)[nH]c(=S)s2)cc1 ... 90.5
2. Cc1cc2c(cc3c(=O)n(CC(=O)N4CCCC4)nc(C)n32)s1 ... 92.4

Turning to the following molecule.
Exam item: Item O=c1ccc2c(-c3cccc(OCc4ccccc4)c3)ccnc2[nH]1 has what recorded viability at 28.5 h, 10 µM?
Marked response: 87.6

* * *

# Procedure text: in vitro
# Condition details: human, hela cells, % viability
Measurement name: viability at 28.5 h, 10 µM

Reference set (3 entries):
1) c1cnc(N2CCNCC2)c(OC2CCCCC2)n1 [CBK001837C] ... 92.7%
2) CCOC(=O)c1cnc2ccc(OC)cc2c1NCCN1CCOCC1 ... 87.7%
3) CCCCN(CC)S(=O)(=O)c1ccc(-n2ncc(Cl)c(Cl)c2=O)cc1 ... 6.38%

Exam item: Item COCCNC(=O)c1ccc(-c2ccccc2)nc1NCC1CC1 has what recorded viability at 28.5 h, 10 µM?
Marked response: 92%

* * *

# System: HeLa
# Condition details: bulk resorufin, single well, 28.5 h, 10 µM, Bulk resorufin fluorescence
Measurement name: % viability (%)
Answer in %, number only, no unit symbol.

1) Cc1cc(CNS(=O)(=O)c2sc3ccc(Cl)cc3c2C)no1 ... 92.3
2) C[C@H](Cn1nc2c(cc1=O)CCCCC2)NC(=O)c1ccccc1F ... 91.5

Exam item: Item COc1ccc(CN2CC3CCCN3C[C@H]2C)cc1 (stereo partly shown) has what recorded % viability?
Marked response: 103

Exam item: Item CCC1CCCCN1C(=O)c1ccc(C(=O)NC)cc1 (stereo not shown) has what recorded % viability?
Marked response: 103

* * *

Below is a list of entries, each paired with its recorded viability at 28.5 h, 10 µM value.
# Procedure text: in vitro
# Condition details: human, hela cells, % viability
Quick note: number first, unit second.

Reference set (3 entries):
1) CCOc1ccc2[nH]c3c(c2c1)CN(C(=O)C1(C)CCCO1)CC3 (centres unmarked) [CBK282659] ... 86.2%
2) CCc1ccc(CNC(=O)Cn2nnc(-c3ccc(CNCCc4ccc(OC)c(OC)c4)cc3)n2)cc1 [CBK155008T] ... 77.2%
3) Cc1ncc(C(O)c2ccc(Cl)cc2)c2c1OC(C)(C)OC2 (centres unmarked) [CBK010749] ... 111%

Exam item: Item CCS(=O)(=O)N1CC2CCCC(O)(c3ccc(F)cc3)C2C1 (centres unmarked) [CBK284363] has what recorded viability at 28.5 h, 10 µM?
Marked response: 80.5%

Exam item: Item CC(C)(CN1CCCC1)CN1CCC(O)(c2ccccc2F)CC1 [CBK282798] has what recorded viability at 28.5 h, 10 µM?
Marked response: 93.4%

* * *

# Procedure text: in vitro
# Condition details: human, hela cells, % viability
# label = y if viability at 28.5 h, 10 µM < 90% else n

Recorded results for 5 compounds are shown here.
1. CC1CN(c2nccn(CCOc3ccc(Br)cc3)c2=O)CCN1 (centres unmarked) [CBK028596T] ... n
2. COc1ccc(CN2CC(C(=O)O)C2)cc1Cn1cncn1 [CBK307284] ... n
3. C=CCn1ncc(CN(C)Cc2nc3ccccc3[nH]2)c1C [CBK283169] ... n
4. COc1cc(/C=N/NC(=O)c2n[nH]c3c2CCC3)ccc1O [CBK262881] ... n
5. COc1cc2c(cc1/C=C1/S/C(=N\c3ccccc3)N(CCCN3CCOCC3)C1=O)OCO2 [CBK265631] ... y

Exam item: Is viability at 28.5 h, 10 µM of COc1ccc(F)c(CN(CC2CCNCC2)C(=O)Nc2c(F)cccc2F)c1 [CBK049804] strictly below 90%?
Marked response: n

Exam item: Is viability at 28.5 h, 10 µM of COC(=O)c1sccc1S(=O)(=O)N1CCN(c2ncnc3scc(C)c23)CC1 [CBK023600] strictly below 90%?
Marked response: n

Exam item: Is viability at 28.5 h, 10 µM of CCCNC(=O)CN(C)Cc1cn2cccc(C)c2n1 [CBK304800] strictly below 90%?
Marked response: y

* * *

# Procedure text: in vitro
# Condition details: human, hela cells, % viability
Measurement name: viability at 28.5 h, 10 µM (%)
Answer in %, number only, no unit symbol.

Reference set (2 entries):
1. CC(NC(=O)Cc1cccc(F)c1)c1nc2cccnc2n1C(C)C (stereo not drawn) ... 98.5
2. COc1ccccc1-c1nccnc1N1CCCC1CO (stereo not drawn) ... 102

Exam item: Item Cc1ccc(C)c(C2CCCN2C(=O)c2cccn(CC(=O)NC3CCCCC3)c2=O)c1 (stereo not drawn) has what recorded viability at 28.5 h, 10 µM?
Marked response: 93

Exam item: Item CC(C)(C)c1ccc(S(=O)(=O)N2CCCC[C@H]2COC(=O)c2nccnc2C(=O)O)cc1 has what recorded viability at 28.5 h, 10 µM?
Marked response: 91.6

Exam item: Item OCCN(CCO)c1cncc(-c2cccs2)n1 has what recorded viability at 28.5 h, 10 µM?
Marked response: 95.4

Exam item: Item CCOc1ccccc1Nc1nc(N)nc(CN2CCCCC2C)n1 (stereo not drawn) has what recorded viability at 28.5 h, 10 µM?
Marked response: 105

Exam item: Item CCCN(CC1CCCO1)C(=O)c1cnn(-c2ccc(F)cc2)c1 (stereo not drawn) has what recorded viability at 28.5 h, 10 µM?
Marked response: 89.7

Exam item: Item CC(C)CNC(=O)c1cc([C@H]2CC[C@H](CNC(=O)Cn3cccn3)CC2)nc2ccccc12 has what recorded viability at 28.5 h, 10 µM?
Marked response: 102

Exam item: Item CCN(CC)CC(C)C(O)(c1ccccc1)c1ccccc1 (stereo not drawn) [CBK012065C] has what recorded viability at 28.5 h, 10 µM?
Marked response: 95

Exam item: Item O=C(O)CCC(=O)N1CC[C@H]2NC(=O)N(c3ccc(F)cc3)C(=O)[C@H]21 has what recorded viability at 28.5 h, 10 µM?
Marked response: 103

Exam item: Item CN(C)C(C(=O)NCC1(C)COC1)c1ccc(Cl)cc1 (stereo not drawn) has what recorded viability at 28.5 h, 10 µM?
Marked response: 102

Exam item: Item COc1ccc(N(CC(=O)O)S(=O)(=O)c2ccccc2[N+](=O)[O-])c(OC)c1 has what recorded viability at 28.5 h, 10 µM?
Marked response: 92.6

Exam item: Item Clc1ccc(SCCOCCN2CCCCC2)cc1 [CBK265108G] has what recorded viability at 28.5 h, 10 µM?
Marked response: 87.3

Exam item: Item CC(OC(=O)Cc1ccccc1[N+](=O)[O-])c1nnnn1-c1ccccc1 (stereo not drawn) has what recorded viability at 28.5 h, 10 µM?
Marked response: 97.6

Exam item: Item CC1(C)OC(=O)C(=CNC(CCC(=O)O)C(=O)O)C(=O)O1 (stereo not drawn) has what recorded viability at 28.5 h, 10 µM?
Marked response: 97.3

Exam item: Item Cc1onc(-c2ccccc2)c1NC(=O)Nc1cc2ccccc2c(Br)n1 has what recorded viability at 28.5 h, 10 µM?
Marked response: 96.5

Exam item: Item COc1ccc([C@@]23CC[C@@H](NC(=O)Nc4ccc(Cl)c(F)c4)C[C@@H]2N(C(C)C)CC3)cc1OC [CBK056852T] has what recorded viability at 28.5 h, 10 µM?
Marked response: 99.2

Exam item: Item COc1cc(-c2cncc(NCc3ccncc3)n2)cc(OC)c1OC has what recorded viability at 28.5 h, 10 µM?
Marked response: 98.9

Exam item: Item O=C(c1cn2cc(-c3cccs3)n(CC3CC3)c(=O)c2n1)N1CCCC1 has what recorded viability at 28.5 h, 10 µM?
Marked response: 92.8

Exam item: Item COc1ccc(C(=O)N2CCN(Cc3ccc(SC)cc3)CC2)cc1 has what recorded viability at 28.5 h, 10 µM?
Marked response: 112

Exam item: Item COc1ccc([C@@]23CC[C@@H](NC(=O)Nc4c(F)ccc(F)c4Cl)C[C@@H]2N(C)CC3)cc1OC [CBK073769T] has what recorded viability at 28.5 h, 10 µM?
Marked response: 93

Exam item: Item CCNC(=O)N1CC[C@H]2CC(=O)N(Cc3cccnc3)CC[C@H]2C1 has what recorded viability at 28.5 h, 10 µM?
Marked response: 85.6

Exam item: Item NC(=O)C1CCN(Cc2nc(-c3cccc(C(F)(F)F)c3)no2)CC1 has what recorded viability at 28.5 h, 10 µM?
Marked response: 97.4

Exam item: Item Cc1cc(C)n(CC2CCCN2CCc2ccccn2)n1 (stereo not drawn) has what recorded viability at 28.5 h, 10 µM?
Marked response: 100
